Below, each of the molecules is paired with its reported pIC50 value.
target: hPAD4 (Homo sapiens); test: hPAD4 RFMS (RapidFire mass spectrometry) PAD4 inhibition assay; format: biochemical; conditions: hPAD4 enzyme, RFMS readout; read-out: hPAD4 RFMS IC50
Sequence (Q9UM07 whole entry): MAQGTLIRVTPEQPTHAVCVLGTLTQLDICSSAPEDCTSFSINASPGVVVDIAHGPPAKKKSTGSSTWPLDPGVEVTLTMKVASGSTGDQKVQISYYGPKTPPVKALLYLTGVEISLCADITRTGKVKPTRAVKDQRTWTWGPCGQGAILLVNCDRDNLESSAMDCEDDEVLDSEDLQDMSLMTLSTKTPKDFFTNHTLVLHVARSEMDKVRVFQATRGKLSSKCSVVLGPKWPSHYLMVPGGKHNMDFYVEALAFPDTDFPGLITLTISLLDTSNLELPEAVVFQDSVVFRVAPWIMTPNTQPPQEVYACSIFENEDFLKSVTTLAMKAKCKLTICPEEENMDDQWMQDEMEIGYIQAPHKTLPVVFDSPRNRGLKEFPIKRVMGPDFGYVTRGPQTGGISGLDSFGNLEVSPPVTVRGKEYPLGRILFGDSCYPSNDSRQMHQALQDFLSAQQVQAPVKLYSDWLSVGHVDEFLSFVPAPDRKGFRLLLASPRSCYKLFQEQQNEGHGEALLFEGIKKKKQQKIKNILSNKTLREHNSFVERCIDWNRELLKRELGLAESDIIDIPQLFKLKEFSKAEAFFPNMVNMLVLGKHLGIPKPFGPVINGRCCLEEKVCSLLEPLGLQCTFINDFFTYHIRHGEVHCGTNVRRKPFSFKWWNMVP
pIC50: −log10 of the molar value.
endpoint_name: pIC50

[
  {
    "molecule": "COc1cc(C(=O)N2CCC[C@@H](N)C2)cc2nc(-c3cc4cccnc4n3CC3CC3)n(C[C@H]3C[C@@](C)(OC)C3)c12 [Compound I-182]",
    "reported_value": "> 6.00"
  },
  {
    "molecule": "Cn1c(-c2cc3cccnc3n2CC2CC2)nc2cc(C(=O)N3CCC[C@@H](N)C3)cc(S(C)(=O)=O)c21 [Compound I-131]",
    "reported_value": "5.00 to 5.30"
  },
  {
    "molecule": "COc1cc(C(=O)N2C[C@H]3CC[C@@H]2[C@@H]3N)cc2nc(-c3cc4cc(NCC5CC5)ccc4n3CC3CC3)n(C)c12 [Compound I-372]",
    "reported_value": "5.30 to 6.00"
  }
]
